Test: in vitro
Conditions: human, Caco-2, pH 7.4

compound | Papp B→A at 9000 Sec, 2 µM, ×10⁻⁶ cm/s
NC(=O)N1c2ccccc2C=Cc2ccccc21 [Carbamazepine] | 28.9

====

Assay: Human hepatocyte clearance (relay assay)
Details: human, % Remaining, 10 µM, hepatocyte donor HC06, 3 h, single replicates

compound | remaining at 3 h, 10 µM
CCOc1ccc2ccc(=O)oc2c1 [7-Ethoxycoumarin] | 80.9%

====

Test system: artemisinin-resistant P. falciparum Cambodian field isolates
Assay: Drug susceptibility of culture-adapted Cambodian isolates
Type: cell-based, Plasmodium falciparum
Settings: Cambodian ACT-resistant isolates; read-out: IC50

structureSmiles | testedTarget | IC50
C[C@@H](CNC(=O)[C@H](O)C(C)(C)CO)NC(=O)c1cc(F)c(F)cc1F | artemisinin-resistant P. falciparum Cambodian field isolates | 0.21 to 1.84 nM

====

System: cryopreserved human primary hepatocytes
Experiment: in vitro
Conditions: human, hepatocytes
Some compounds, each annotated with its measured Human hepatocyte CLint.
readout: Human hepatocyte CLint (µl/min/10^6 cells)

compound | testedTarget | readout | observedValue
CC(CNC(=O)C(O)C(C)(C)CO)NC(=O)CCc1ccccc1F (stereo in doubt) | cryopreserved human primary hepatocytes | Human hepatocyte CLint | 0.8
CC(C)(CO)[C@@H](O)C(=O)NCCNC(=O)c1cc(C#N)ccc1F | cryopreserved human primary hepatocytes | Human hepatocyte CLint | 0.2
C[C@@H](CNC(=O)[C@H](O)C(C)(C)CO)NC(=O)c1cccc(C#N)c1 (stereo in doubt) | cryopreserved human primary hepatocytes | Human hepatocyte CLint | 0.3
C[C@@H](CNC(=O)[C@H](O)C(C)(C)CO)NC(=O)c1cc(F)c(F)cc1F | cryopreserved human primary hepatocytes | Human hepatocyte CLint | 0.4
C[C@@H](CNC(=O)[C@H](O)C(C)(C)CO)NC(=O)c1cccc(F)c1 (stereo in doubt) | cryopreserved human primary hepatocytes | Human hepatocyte CLint | 0.5

====

Assay: Blood concentration and PK in infected NSG mice after single oral dose
Format: in vivo, mouse
Settings: female, NSG (NODscidIL2Rγnull), mouse, whole blood, po; 50 mg/kg p.o.; read-out: Tmax

compound | Tmax [h]
C[C@@H](CNC(=O)[C@H](O)C(C)(C)CO)NC(=O)c1cc(C#N)ccc1F [MMV693182] | 1

====

Some compounds, each annotated with its measured T1/2.
Assay: Blood concentration and PK in infected NSG mice after single oral dose
Type: in vivo, mouse
Conditions: 50 mg/kg p.o.

compound | T1/2
C[C@@H](CNC(=O)[C@H](O)C(C)(C)CO)NC(=O)c1cccc(C#N)c1 (stereo in doubt) [MMV884962] | 3.32 h
C[C@@H](CNC(=O)[C@H](O)C(C)(C)CO)NC(=O)c1cc(F)c(F)cc1F [MMV693183] | 2.49 h
C[C@@H](CNC(=O)[C@H](O)C(C)(C)CO)NC(=O)c1cccc(F)c1 (stereo in doubt) [MMV1542001] | 2.80 h
CC(C)(CO)[C@@H](O)C(=O)NCCNC(=O)c1cc(C#N)ccc1F [MMV976394] | 2.95 h
CC(CNC(=O)C(O)C(C)(C)CO)NC(=O)CCc1ccccc1F (stereo in doubt) [MMV689258] | 3.26 h

====

Assay: in vitro
Conditions: human, Caco-2, pH 7.4

molecule | Papp A→B at 9000 Sec, 2 µM, ×10⁻⁶ cm/s
NC(=O)N1c2ccccc2C=Cc2ccccc21 [Carbamazepine] | 25

====

Test system: artemisinin-resistant P. falciparum Cambodian field isolates
Test: Drug susceptibility of culture-adapted Cambodian isolates
Type: cell-based, Plasmodium falciparum
Settings: MQ-ART isolates; read-out: IC50s
pIC50: −log10 of the molar value.

compound | pIC50
C[C@@H](CNC(=O)[C@H](O)C(C)(C)CO)NC(=O)c1cc(F)c(F)cc1F [MMV693183] | 8.83

====

Test: Human hepatocyte clearance (relay assay)
Conditions: human, % Remaining, 10 µM, hepatocyte donor HC425, 0 h, single replicates

structureSmiles | uom | remaining at 0 h, 10 µM
CCOc1ccc2ccc(=O)oc2c1 | % | 100

====

Test: Crystal screening (XRPD)
Format: physicochemical
Details: 36 conditions
Procedure: Crystal screening for each further characterized pantothenamide was performed by a commercial service (Crystal Pharmatech Co., Ltd.) under 36 conditions using a variety of crystallization methods, including liquid vapor diffusion, slow evaporation, slurry conversion and salt/co-crystal formation and solvents. X-ray power diffraction (XRPD) patterns were collected by Bruker X-ray powder diffractometers.

molecule | Crystalline
C[C@@H](CNC(=O)[C@H](O)C(C)(C)CO)NC(=O)c1cc(C#N)ccc1F | Yes
CC(CNC(=O)C(O)C(C)(C)CO)NC(=O)CCc1ccccc1F (stereo in doubt) | Yes
C[C@@H](CNC(=O)[C@H](O)C(C)(C)CO)NC(=O)c1cccc(F)c1 (stereo in doubt) | No
C[C@@H](CNC(=O)[C@H](O)C(C)(C)CO)NC(=O)c1cccc(C#N)c1 (stereo in doubt) | No
C[C@@H](CNC(=O)[C@H](O)C(C)(C)CO)NC(=O)c1cc(F)c(F)cc1F | Yes
CC(C)(CO)[C@@H](O)C(=O)NCCNC(=O)c1cc(C#N)ccc1F | No

====

Biological target: hERG channel (Homo sapiens, UniProt Q12809)
Construct: Metrion Biosciences
Sequence (Q12809 whole entry): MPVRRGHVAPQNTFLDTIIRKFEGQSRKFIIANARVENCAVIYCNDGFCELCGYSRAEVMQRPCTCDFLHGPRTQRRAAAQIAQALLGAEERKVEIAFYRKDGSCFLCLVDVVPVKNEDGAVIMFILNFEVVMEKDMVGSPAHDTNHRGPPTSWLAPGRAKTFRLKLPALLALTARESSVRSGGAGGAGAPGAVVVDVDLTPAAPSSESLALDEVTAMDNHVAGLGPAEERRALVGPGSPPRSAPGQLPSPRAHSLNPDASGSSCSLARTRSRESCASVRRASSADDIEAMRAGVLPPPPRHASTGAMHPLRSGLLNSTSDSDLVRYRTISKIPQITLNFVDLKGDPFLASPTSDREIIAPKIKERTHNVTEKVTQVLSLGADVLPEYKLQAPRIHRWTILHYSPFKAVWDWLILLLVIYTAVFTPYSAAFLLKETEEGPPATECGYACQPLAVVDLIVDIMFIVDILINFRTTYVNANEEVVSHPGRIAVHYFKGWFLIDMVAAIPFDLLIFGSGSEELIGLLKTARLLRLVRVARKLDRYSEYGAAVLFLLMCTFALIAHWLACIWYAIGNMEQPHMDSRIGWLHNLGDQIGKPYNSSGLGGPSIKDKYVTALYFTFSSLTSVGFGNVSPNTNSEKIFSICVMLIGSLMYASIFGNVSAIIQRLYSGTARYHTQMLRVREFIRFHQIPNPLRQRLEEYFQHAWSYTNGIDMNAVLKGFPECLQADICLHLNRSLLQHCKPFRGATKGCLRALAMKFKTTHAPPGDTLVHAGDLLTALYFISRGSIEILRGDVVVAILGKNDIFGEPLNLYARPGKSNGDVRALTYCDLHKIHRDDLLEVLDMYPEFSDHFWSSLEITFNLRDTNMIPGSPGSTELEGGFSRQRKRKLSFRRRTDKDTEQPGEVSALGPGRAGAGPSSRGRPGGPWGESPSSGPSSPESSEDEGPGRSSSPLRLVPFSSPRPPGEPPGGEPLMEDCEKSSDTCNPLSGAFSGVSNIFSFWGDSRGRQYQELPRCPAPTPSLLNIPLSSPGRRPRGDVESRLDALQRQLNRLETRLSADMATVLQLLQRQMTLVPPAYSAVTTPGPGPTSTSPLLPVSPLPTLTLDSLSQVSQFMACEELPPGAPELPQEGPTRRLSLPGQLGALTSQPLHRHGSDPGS
Experiment: Automated patch clamp (Qpatch)
Assay type: cell-based
Experimental: Safety studies were performed by commercial services using their standard protocols. […] Genotoxicity was investigated using the Ames test (Bacterial Reverse Mutation Assay) (Covance Laboratories Ltd, North Yorkshire, England). […] Cardiotoxicity was determined against the hERG channel in an automated patch clamp assay using the Qpatch or against the hNaV 1.5, hKV 1.5 and hCaV 1.2 using a manual patch-clamp technique (Metrion Biosciences, Cambridge, UK). […]
pIC50: −log10 of the molar value.

structureSmiles | testedTarget | pIC50
C[C@@H](CNC(=O)[C@H](O)C(C)(C)CO)NC(=O)c1cc(F)c(F)cc1F | hERG channel (Homo sapiens, UniProt Q12809) | < 5.00

====

Assay: in vitro
Settings: human, Caco-2, pH 7.4

molecule | efflux ratio at 9000 Sec, 2 µM
NC(=O)N1c2ccccc2C=Cc2ccccc21 [Carbamazepine] | 1.2

====

System: rat primary hepatocytes
Experiment: Primary hepatocyte viability (CellTiter-Blue), rat
Assay type: cell-based
Conditions: primary rat hepatocytes

molecule | testedTarget | IC50
C[C@@H](CNC(=O)[C@H](O)C(C)(C)CO)NC(=O)c1cc(F)c(F)cc1F [MMV693183] | rat primary hepatocytes | > 10 µM

====

Experiment: Human hepatocyte clearance (relay assay)
Settings: human, cryopreserved human primary hepatocytes (relay assay), % Remaining, 10 µM, hepatocyte donor HC425, 72 h, single replicates
Excerpt: Briefly, cryopreserved human primary hepatocytes were thawed and cultured as described above.
readout: remaining at 72 h, 10 µM (%)

compound | readout | observedValue
CCOc1ccc2ccc(=O)oc2c1 [7-Ethoxycoumarin] | remaining at 72 h, 10 µM | 8.2

====

Test: Human hepatocyte clearance (relay assay)
Conditions: human, cryopreserved human primary hepatocytes (relay assay), % Remaining, 10 µM, hepatocyte donor HC425, 48 h, single replicates
Description: Briefly, cryopreserved human primary hepatocytes were thawed and cultured as described above.
readout: remaining at 48 h, 10 µM (%)

structureSmiles | readout | uom | observedValue
CCOc1ccc2ccc(=O)oc2c1 | remaining at 48 h, 10 µM | % | 25.4

====

Test: Blood concentration and PK in infected NSG mice after single oral dose
Type: in vivo, mouse
Conditions: female, NSG (NODscidIL2Rγnull), mouse, whole blood, po; 50 mg/kg p.o.
readout: half-life (h)

compound | observedValue
C[C@@H](CNC(=O)[C@H](O)C(C)(C)CO)NC(=O)c1cc(C#N)ccc1F [MMV693182] | 3.19

====

Test system: P. falciparum NF54-HGL gametocytes
Experiment: Gametocyte viability assay (72 h, luminescence)
Format: cell-based, Plasmodium falciparum
Details: Plasmodium falciparum, NF54, per replicate experiment; read-out: IC50, sexual blood stages

compound | uom | IC50
C[C@@H](CNC(=O)[C@H](O)C(C)(C)CO)NC(=O)c1cc(C#N)ccc1F [MMV693182] | nM | 32.9

====

Tested on: P. falciparum NF54 asexual blood-stage parasites
Assay: 72-h asexual blood-stage replication assay (SYBR Green)
Format: cell-based, Plasmodium falciparum
Conditions: Plasmodium falciparum, NF54, per replicate experiment; read-out: IC50, asexual blood stages

structureSmiles | IC50 (nM)
C[C@@H](CNC(=O)[C@H](O)C(C)(C)CO)NC(=O)c1cc(C#N)ccc1F | 7.54

====

Assay: in vitro
Settings: human, Caco-2, pH 7.4, Papp n=1, 2
readout: Papp at 9000 Sec, 2 µM

molecule | observedValue
NC(=O)N1c2ccccc2C=Cc2ccccc21 [Carbamazepine] | 24.3 ×10⁻⁶ cm/s

====

Test: Human hepatocyte clearance (relay assay)
Conditions: human, cryopreserved human primary hepatocytes (relay assay), CLint, donor HC1010
From the text: Briefly, cryopreserved human primary hepatocytes were thawed and cultured as described above.

structureSmiles | hepatocyte CLint / µL/min/1e6 cells
CCOc1ccc2ccc(=O)oc2c1 | 6.28

The values you see were collected from paper PMC9021288.
